Exercise: state measured IC50 for each of the compounds provided.
- TARGET_SYSTEM: HIV protease (Human immunodeficiency virus type 1 group M subtype B, UniProt P04585)
- Construct: HIV protease is diluted in the assay buffer to a final enzyme concentration of 12.3 nanomolar, based on a molecular weight of 10,780
- PROTOCOL_SUMMARY: HIV protease enzyme assay (fluorogenic substrate 2-aminobenzoyl-Ile-Nle-Phe(p-NO2)-Gln-ArgNH2)
- Type: biochemical
Respond with a number, then the unit of measure.

Input line: # returns recorded IC50 (system: HIV protease (Human immunodeficiency virus type 1 group M subtype B, UniProt P04585)) for CCCCN(C[C@@H](O)[C@H](Cc1ccccc1)NC(=O)[C@H](C)CS(C)(=O)=O)S(=O)(=O)c1ccc(OC)cc1 (relative stereo) [Example 8]
Output line: 3.1 nM

Input line: Similarly, COc1ccc(S(=O)(=O)N(CC(C)C)C[C@@H](O)[C@H](Cc2ccccc2)NC(=O)[C@H](C)CS(C)(=O)=O)cc1 (relative stereo) [Example 7] ?
Output line: 1.9 nM

Input line: Similarly, CCCN(C[C@@H](O)[C@H](Cc1ccccc1)NC(=O)[C@H](C)CS(C)(=O)=O)S(=O)(=O)c1ccccc1 (relative stereo) [Example 5] ?
Output line: 13 nM

Input line: Similarly, CC(C)CCN(C[C@@H](O)[C@H](Cc1ccccc1)NC(=O)[C@H](C)CS(C)(=O)=O)S(=O)(=O)c1ccccc1 (relative stereo) [Example 4] ?
Output line: 3 nM
